# Test system: HepG2
# EXPERIMENTAL_PROTOCOL: Antitumor activity against human HepG2 cells assessed as inhibition of cell viability by MTT assay
# Format: functional, cell-based
PROPERTY_NAME: IC50 (µM)
Note: unit µM is implicit; provide only the numeric part.

Reference set, count: 10
{"SMILES_NOTATION": "CC(C)(C)c1cc(NC(=O)CN2CCN(c3ccccc3)CC2)no1", "IC50 [µM]": 28.4}
{"SMILES_NOTATION": "CC(C)(C)c1cc(NC2=NC(=O)/C(=C\\c3ccc(-c4ccccc4)cc3)S2)no1", "IC50 [µM]": 84.7}
{"SMILES_NOTATION": "CCN1CCN(CCC(=O)Nc2cc(C(C)(C)C)on2)CC1", "IC50 [µM]": 76.4}
{"SMILES_NOTATION": "CCN1CCN(CC(=O)Nc2cc(C(C)(C)C)on2)CC1", "IC50 [µM]": 39.1}
{"SMILES_NOTATION": "Cc1cc(NC2=NC(=O)/C(=C\\c3ccc(Br)cc3)S2)no1", "IC50 [µM]": 87.8}
{"SMILES_NOTATION": "Cc1cc(NC(=O)CCN2CCN(C)CC2)no1", "IC50 [µM]": 56.7}
{"SMILES_NOTATION": "CC(C)(C)c1cc(NC2=NC(=O)/C(=C\\c3c(F)cccc3Cl)S2)no1", "IC50 [µM]": 91.6}
{"SMILES_NOTATION": "Cc1cc(NC(=O)CN2CCN(C)CC2)no1", "IC50 [µM]": 63.5}
{"SMILES_NOTATION": "CC(C)(C)c1cc(NC(=O)CCl)no1", "IC50 [µM]": 9.74}
{"SMILES_NOTATION": "Cc1ccc(/C=C2/SC(Nc3cc(C(C)(C)C)on3)=NC2=O)cc1", "IC50 [µM]": 55.4}

Next up:
Prompt: Item under review: `CC(C)(C)c1cc(NC2=NC(=O)/C(=C\c3ccc(Br)cc3)S2)no1` . Reported IC50?
Response: 48.2

----------
# EXPERIMENTAL_PROTOCOL: Lipophilicity, logP of the compound
# Format: physicochemical
# CONDITION_SET: octanol/water
Examples of compounds with documented logP follow.
Just the number, please, no unit attached.

Prompt: I would be grateful if you could share the reported logP for `CC(C)(C)c1cc(NC(=O)CCN2CCN(c3ccccc3)CC2)no1` .
Response: 3.56

Prompt: Now this one: `CN1CCN(CCC(=O)Nc2cc(C(C)(C)C)on2)CC1`
Response: 1.86

Prompt: Can you handle `CC(C)(C)c1cc(NC(=O)CN2CCOCC2)no1` next?
Response: 1.91

Prompt: Can you handle `Cc1cc(NC(=O)CN2CCN(c3ccccc3)CC2)no1` next?
Response: 1.93

Prompt: # repeat for `CC(C)(C)c1cc(NC2=NC(=O)/C(=C\c3ccc(-c4ccccc4)cc3)S2)no1`
Response: 6.5

Prompt: Do the same for `CC(C)(C)c1cc(NC(=O)CCl)no1` please
Response: 2.27

----------
# System: HepG2
# EXPERIMENTAL_PROTOCOL: Antitumor activity against human HepG2 cells assessed as inhibition of cell viability by MTT assay
# Assay type: functional, cell-based
PROPERTY_NAME: pIC50
Please treat pIC50 as minus the base-10 logarithm of the molar concentration.

Example cases with answers are listed next.
{"SMILES_NOTATION": "CCN1CCN(CCC(=O)Nc2cc(C)on2)CC1", "PROPERTY_NAME": "pIC50", "MEASURED_RESULT": 4.28}
{"SMILES_NOTATION": "CC(C)(C)c1cc(N2C(=O)c3c(Br)c(Br)c(Br)c(Br)c3C2=O)no1", "PROPERTY_NAME": "pIC50", "MEASURED_RESULT": 4.04}
{"SMILES_NOTATION": "Cc1cc(NC(=O)CN2CCN(Cc3ccccc3)CC2)no1", "PROPERTY_NAME": "pIC50", "MEASURED_RESULT": 4.30}

Prompt: Item: `CC(C)(C)c1cc(NC(=O)CCN2CCN(Cc3ccccc3)CC2)no1` Test system: HepG2 Read-out: pIC50 Value: ?
Response: 4.08

Prompt: And for `CC(C)(C)c1cc(NC(=O)CN2CCOCC2)no1` ?
Response: 4.60
